The reported measurements were obtained from paper PMC10390517.

biological target: α-glucosidase (Saccharomyces cerevisiae)
Sequence (P53341 whole entry): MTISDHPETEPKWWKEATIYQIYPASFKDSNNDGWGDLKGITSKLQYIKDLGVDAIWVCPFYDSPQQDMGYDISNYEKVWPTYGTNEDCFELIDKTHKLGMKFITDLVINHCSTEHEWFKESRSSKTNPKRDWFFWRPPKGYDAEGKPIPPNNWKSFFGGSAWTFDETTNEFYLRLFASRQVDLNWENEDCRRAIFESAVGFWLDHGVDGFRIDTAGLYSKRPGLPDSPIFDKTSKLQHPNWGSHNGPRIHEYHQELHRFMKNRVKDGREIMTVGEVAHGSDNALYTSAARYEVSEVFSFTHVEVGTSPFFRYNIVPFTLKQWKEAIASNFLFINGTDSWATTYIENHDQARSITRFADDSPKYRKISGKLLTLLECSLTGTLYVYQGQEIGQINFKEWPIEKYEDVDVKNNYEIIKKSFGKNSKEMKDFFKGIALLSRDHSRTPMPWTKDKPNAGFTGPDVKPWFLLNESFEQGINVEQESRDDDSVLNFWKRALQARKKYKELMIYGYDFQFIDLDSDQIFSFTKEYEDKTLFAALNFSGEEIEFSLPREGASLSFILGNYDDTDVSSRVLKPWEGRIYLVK
result_type: Ki (µM)
# value in µM; strip the unit string

*Q* Looking for the measured Ki of Cc1cccc(NC(=O)Cn2cc(CNC(=O)c3nc4ccccc4[nH]3)nn2)c1 [8c] , can you help?
*A* 40

----------
assay: In vitro cytotoxicity by MTT method, HDF; settings: human, HDF normal human cells
pIC50: −log10 of the molar value.
Please provide measured pIC50 for the entries that follow.

*Q* Looking for the measured pIC50 of Cc1cccc(NC(=O)Cn2cc(CNC(=O)c3nc4ccccc4[nH]3)nn2)c1C [8e] , can you help?
*A* < 3.70

*Q* Similarly, Cc1cccc(NC(=O)Cn2cc(CNC(=O)c3nc4ccccc4[nH]3)nn2)c1 [8c] ?
*A* < 3.70

*Q* Similarly, Cc1cccc(C)c1NC(=O)Cn1cc(CNC(=O)c2nc3ccccc3[nH]2)nn1 [8g] ?
*A* < 3.70
